test system: SN12C renal; assay: NCI tumour cell line growth inhibition, 48 h
property-measured: TGI

compound	TGI
O=C(NO)c1ccc([N+](=O)[O-])cc1	> 100 µM
C[C@H]1[C@H](C)N(Cc2ccccc2)P(=O)(C(O)/C=C/c2ccccc2)N1Cc1ccccc1 (stereo partly specified)	8.75 µM
CC1(C)C(=O)N(O)C(C)(C)N1O	> 10 µM
CCCCCCn1c(SCC)c2ccccc2c1-c1nc(F)nc(F)n1	> 100 µM
C/C(CN1C(=O)c2ccccc2C1=O)=N\NS(=O)(=O)c1ccc(Br)cc1	> 100 µM

Query TGI on SN12C renal for `CCOC(=O)Cc1c[nH]c(=S)[nH]c1=O`
> 100 µM

Find TGI (SN12C renal) for the entry `O=C(O)c1c[nH]c2c(Sc3ccccc3)nccc2c1=O`
> 100 µM

Give recorded TGI with SN12C renal for the following compound: `C[C@]12CC[C@H]3[C@@H](CCC4=CC(=O)CC[C@@H]43)[C@@H]1CC[C@@H]2OC(=O)N(CCCl)N=O`
21.4 µM

Item: `CCOC(=O)NC(C(F)(F)F)(C(F)(F)F)P(=O)(OC(C)C)OC(C)C` Test system: SN12C renal Read-out: TGI Value: ?
> 100 µM

Hello, I am looking for reported TGI with SN12C renal for COc1cc(S(=O)(=O)Nc2ccc(-c3csc(N4C(=O)CSC4c4cccs4)n3)cc2)ccc1Cl (stereo unspecified) . Could you help?
73.7 µM

Query TGI on SN12C renal for CC1CC2OC(=O)C3CC(O)CC(=C23)[C@@]12C[C@@H](c1ccoc1)OC2=O (stereo partly specified)
> 100 µM
